test system: Saccharomyces cerevisiae; assay: protein stability index of tFT-peptide fusion (C-terminal peptide) (PSI (0-1 scale)); higher = more stable (slower turnover); conditions: genetic background: wild type; temperature: 30 C
ASSAY METRIC: protein stability index
Respond numerically, and do not add a unit to the figure.

Guide cases for protein stability index, answers given:
seq_text=DVESGRVDLGEE experimental_system="Saccharomyces cerevisiae" assay_metric="protein stability index" reported_result=0.787
seq_text=WPSTLHRGLSLP experimental_system="Saccharomyces cerevisiae" assay_metric="protein stability index" reported_result=0.702
seq_text=RGAVRVAWYPVL experimental_system="Saccharomyces cerevisiae" assay_metric="protein stability index" reported_result=0.508

Please look up its protein stability index: SLPPPAAPLPFP
0.735

Returns the measured protein stability index for the input sequence. Input: SLLYIQDFVSGV
0.683

Reported protein stability index for HPPLPLPCAFPP : what is it?
0.7

Recorded protein stability index of HARFRPRKAVGD , please.
0.67

Need protein stability index of SRGGGRSEGGEG , thanks.
0.695

###

test system: Saccharomyces cerevisiae; test: protein stability index of tFT-peptide fusion (C-terminal peptide) (PSI (0-1 scale)); higher = more stable (slower turnover); conditions: genetic background: wild type; temperature: 30 C
ASSAY METRIC: protein stability index
Form rule: numeric answer, no unit written next to it.

Reference set (4 entries):
seq_text=PTIKPSPRFPLS experimental_system="Saccharomyces cerevisiae" reported_result=0.71
seq_text=KKKDRENIKNKI experimental_system="Saccharomyces cerevisiae" reported_result=0.715
seq_text=RYQMVTGPPQRH experimental_system="Saccharomyces cerevisiae" reported_result=0.692
seq_text=SAPQPPFPFPPS experimental_system="Saccharomyces cerevisiae" reported_result=0.696

Look up protein stability index for this sequence: LYHARTIRQSAK
0.701

Request the reported protein stability index associated with LRNWIGGTLGGG
0.7

May I ask what protein stability index has been recorded for LLPPPPTPPLNL ?
0.688

Entry GWWGCGASVCGV has what protein stability index?
0.72

###

test system: Saccharomyces cerevisiae; experiment: protein stability index of tFT-peptide fusion (C-terminal peptide) (PSI (0-1 scale)); higher = more stable (slower turnover); conditions: genetic background: wild type; temperature: 30 C
Listing of entries alongside the reported protein stability index.
Just the number.

Please look up its protein stability index: VWGLWRLCVWGV
0.302

What does the data say about its protein stability index? Entry: CVVLCLFCWCML
0.305

Could you share which protein stability index value was measured for IVFLPVLLWFSV ?
0.297

###

system: Saccharomyces cerevisiae; test: protein stability index of tFT-peptide fusion in deletion strain of DAS1 (PSI (0-1 scale)); higher = more stable (slower turnover)
Threshold check on protein stability index: at or above 0.6 gives Condition met, strictly below gives Condition not met.

Solved cases (10 shown):
seq_text=VRGAVEGWRLVG group_label="Condition met"
seq_text=ARWYVGLWRGAS group_label="Condition met"
seq_text=CTDCGYKFRTNN group_label="Condition met"
seq_text=CTSCGYKFRTNNG group_label="Condition met"
seq_text=GTSCGYKFRTNN group_label="Condition met"
seq_text=PDKRNHLIKLQN group_label="Condition met"
seq_text=PSLAASFWRVVGK group_label="Condition met"
seq_text=PSLAASFWGVVG group_label="Condition met"
seq_text=CTSCGYKFRTNNF group_label="Condition met"
seq_text=PYLAASFWRVVG group_label="Condition met"

Entry LKVYLSCVACIN : is its protein stability index no less than 0.6?
Condition not met

Decide: protein stability index of PSLACSFWRVVG >= 0.6?
Condition met

Assess whether reported protein stability index for LVVYLSCVACINH sits at 0.6 or higher.
Condition not met

Answer whether protein stability index of PSWAASFWRVVG is greater than or equal to 0.6.
Condition met

Assess whether reported protein stability index for LKILRQKVNHQN sits at 0.6 or higher.
Condition met

Could you please find out whether WKILRQKMNHQN has protein stability index that meets 0.6 or exceeds it?
Condition met

Given the entry PSLAASFWRAVG , answer whether its protein stability index meets or surpasses 0.6.
Condition met

Entry VRGAGGGWRLVG : is its protein stability index no less than 0.6?
Condition met

Could you verify whether the entry LVVYRSCVACIN shows protein stability index of no less than 0.6?
Condition not met

Hi team, for LVVYLSCVACHN , is the recorded protein stability index at or above 0.6?
Condition not met

Given CTSCGYKRRTNN , state whether its protein stability index is at least 0.6.
Condition met

API: above_or_equal(metric=protein stability index, cutoff=0.6) for item CTSCGYKFRTKN
Condition met

Quick check: does PSLAASFWRVPG have protein stability index greater than or equal to 0.6?
Condition met

Does the reported protein stability index for KKHSKGQKQKIN fall at or above the 0.6 mark?
Condition not met

Is it the case that HSLAASFWRVVG has protein stability index reaching or exceeding 0.6?
Condition met

Could you verify whether the entry PSLAASFWRVLG shows protein stability index of no less than 0.6?
Condition met

###

protein stability index overview
tested on: Saccharomyces cerevisiae; assay: protein stability index of tFT-peptide fusion in wild type (PSI (0-1 scale)); higher = more stable (slower turnover); conditions: genetic background: wild type
Keep the answer to the number alone.

Record excerpt, results attached:
seq_text=LKILRQKMNHTN assay_metric="protein stability index" reported_result=0.197
seq_text=RVTRLDAIYFRW assay_metric="protein stability index" reported_result=0.472
seq_text=KKHKKGLKQKIN assay_metric="protein stability index" reported_result=0.0663
seq_text=PDKRNHLIKLQN assay_metric="protein stability index" reported_result=0.453
seq_text=GLYFCSVGCWFR assay_metric="protein stability index" reported_result=0.202

Which protein stability index is reported for this sequence? KQHKKGQKQKIN
0.104

###

test system: Saccharomyces cerevisiae; test: protein stability index of tFT-peptide fusion (C-terminal peptide) (PSI (0-1 scale)); higher = more stable (slower turnover); details: genetic background: wild type; temperature: 30 C
# protein stability index per entry
Respond using a number only.

seq_text=HGTVQNIVARYV experimental_system="Saccharomyces cerevisiae" reported_result=0.611
seq_text=YVRCSVKCHILT experimental_system="Saccharomyces cerevisiae" reported_result=0.609
seq_text=KAHSFAYVINCL experimental_system="Saccharomyces cerevisiae" reported_result=0.589
seq_text=PPPTAPSLSSPS experimental_system="Saccharomyces cerevisiae" reported_result=0.688
seq_text=VPFDFFVYFFEF experimental_system="Saccharomyces cerevisiae" reported_result=0.586
seq_text=VGSVVRGLVGPY experimental_system="Saccharomyces cerevisiae" reported_result=0.717

// lookup protein stability index for LPISASLLSFPL
0.716

Quick one: protein stability index for RLPPLFPPPPPC ?
0.709

# get_value(readout='protein stability index', item= GCRGVVVDGCGW )
0.593

Can you share its protein stability index? I mean this sequence: CVLSWSLFVVVW
0.044

What value of protein stability index has been reported for the following sequence? PNSSLLNLPRPP
0.744

Quick check: protein stability index of KKKKKKKRNKHN ?
0.706

Returns the measured protein stability index for the input sequence. Input: VHRKGGRLEILG
0.64

###

test system: Saccharomyces cerevisiae; experiment: protein stability index of tFT-peptide fusion (C-terminal peptide) (PSI (0-1 scale)); higher = more stable (slower turnover); details: genetic background: das1 deletion; temperature: 30 C
Could you label it rule met if measured protein stability index is 0.7 or higher, and rule not met otherwise?

See these solved cases before continuing.
seq_text="NSLIFDAFNQIR [CDH1 C-terminal 12 aa]" group_label="rule met"
seq_text="LQALIIVQVMFS [YLL059C C-terminal 12 aa]" group_label="rule not met"
seq_text="SNWARIFFCHHD [YDL186W C-terminal 12 aa]" group_label="rule met"

Now consider a different sequence.
Decide: protein stability index of WRKFGINSYSYS [DIA2 C-terminal 12 aa] >= 0.7?
rule met

###

test system: Saccharomyces cerevisiae; experiment: protein stability index of tFT-peptide fusion (C-terminal peptide) (PSI (0-1 scale)); higher = more stable (slower turnover); details: genetic background: doa10 deletion; temperature: 30 C
ASSAY METRIC: protein stability index
Please reply with the value in numeric form only.

seq_text=WYAGIVFTRVWM reported_result=0.466
seq_text=KSARLYVTSFLC reported_result=0.107
seq_text=PILRGRPTPAIL reported_result=0.681

Recorded protein stability index of YAFLWCVFYLSF , please.
0.216

What measured protein stability index goes with RMCPWVSVRVGV ?
0.354

###

tested on: Saccharomyces cerevisiae; test: protein stability index of tFT-peptide fusion (C-terminal peptide) (PSI (0-1 scale)); higher = more stable (slower turnover); conditions: genetic background: wild type; temperature: 30 C
Quick list: protein stability index per entry.
Lab note: write the figure by itself, no unit.

seq_text="ITGLKNNIQKCS [YER068C-A C-terminal 12 aa]" reported_result=0.253

Would you mind telling me what protein stability index value was observed for YANLLYKFWNDQ [PCL7 C-terminal 12 aa] ?
0.672

Find the recorded protein stability index belonging to KAAINQQSTPLN [RPH1 C-terminal 12 aa] and report it.
0.728

Find the recorded protein stability index belonging to KRLHQLDGIPHA [MEO1 C-terminal 12 aa] and report it.
0.685

Query: protein stability index; subject: DENDKVIAIKVV [VPS25 C-terminal 12 aa]
0.525

Any idea what protein stability index was measured for NEDWPNESKPLV [GOR1 C-terminal 12 aa] ?
0.663

Bench note: what protein stability index did LSQLVKKKPRRH [HIF1 C-terminal 12 aa] show?
0.729

Using the record for LIYLNETLGTRL [IRC19 C-terminal 12 aa] , report its protein stability index.
0.671

Fill blank: measured protein stability index of the sequence QCPVCRSPLPPL [TUL1 C-terminal 12 aa] is ____.
0.742

For the sequence PTTRPYIYEPRK [ELA1 C-terminal 12 aa] , what protein stability index is on record?
0.662

Fill in: protein stability index of VISLAAQSKYVQ [MCO6 C-terminal 12 aa] is ___
0.697

Reference source: the supplement of paper PMC10724198
